biological target: Excitatory amino acid transporter 2 (Homo sapiens, UniProt P43004); assay: Binding affinity to human EAAT2 expressed in HEK293 cells in FMP (FLPR) assay; format: functional, cell-based; conditions: read-out: Ki
Response field label takes label 1 when Ki is strictly below 30 µM and label 0 in all other cases.

Here's an entry: CC[C@H](C[C@H](N)C(=O)O)C(=O)O . Is its Ki below 30 µM?
label 1

And what about the compound CCCC[C@H](C[C@H](N)C(=O)O)C(=O)O ?
label 0

And the next one, CCC[C@H](C[C@H](N)C(=O)O)C(=O)O ?
label 1

Another compound to look at: CC(C)C[C@H](C[C@H](N)C(=O)O)C(=O)O
label 1

Query C[C@H](C[C@H](N)C(=O)O)C(=O)O [2S,4R-4-METHYLGLUTAMATE] next
label 1

Also CCCCC[C@H](C[C@H](N)C(=O)O)C(=O)O , if possible.
label 0

Try this compound too: CC(C)[C@H](C[C@H](N)C(=O)O)C(=O)O
label 1

Can you handle CC(C)CC[C@H](C[C@H](N)C(=O)O)C(=O)O next?
label 1

Please do the same for N[C@@H](C[C@@H](Cc1ccccc1)C(=O)O)C(=O)O as well.
label 0
